system: Human immunodeficiency virus 1; assay: Antiviral activity against HIV-1 F227L-V106A mutant infected in human MT4 cells assessed as protection against virus induced cytopathic effect and measured after 5 days by MTT spectrophotometric assay; assay type: functional, organism-based; settings: Human immunodeficiency virus 1, MT4, 120 h
parameter-measured: EC50

Record excerpt, results attached:
| record-smiles | parameter-measured | result |
| --- | --- | --- |
| CS(=O)(=O)Nc1ccc2[nH]c(C(=O)N3CCC(Nc4nccc(Oc5ccc(Br)cc5)n4)CC3)cc2c1 | EC50 | > 9.1 µM |
| CS(=O)(=O)Nc1ccc2[nH]c(C(=O)N3CCC(Nc4nccc(Oc5ccc(C(F)(F)F)cc5)n4)CC3)cc2c1 | EC50 | > 18 µM |
| CS(=O)(=O)Nc1ccc2[nH]c(C(=O)N3CCC(Nc4nccc(Oc5ccc(C#N)cc5)n4)CC3)cc2c1 | EC50 | > 192 µM |

Next:
Prompt: What EC50 value was documented for this compound, `Cc1ccccc1Oc1ccnc(NC2CCN(C(=O)c3cc4cc(NS(C)(=O)=O)ccc4[nH]3)CC2)n1` ?
Completion: > 13 µM

###

These compounds were tested on Human immunodeficiency virus type 1 reverse transcriptase (Human immunodeficiency virus 1); log10(IC50) is the recorded read-out.
// units: nM (pre-log); metric: IC50; scale: log10

Record excerpt, results attached:
| record-smiles | study-target | numeric-result |
| --- | --- | --- |
| CS(=O)(=O)Nc1ccc2[nH]c(C(=O)N3CCC(Nc4nccc(Oc5ccc(C#N)cc5)n4)CC3)cc2c1 | Human immunodeficiency virus type 1 reverse transcriptase (Human immunodeficiency virus 1) | 3.04 |
| Cc1cc(C#N)cc(C)c1Oc1ccnc(NC2CCN(C(=O)c3cc4cc(NS(C)(=O)=O)ccc4[nH]3)CC2)n1 | Human immunodeficiency virus type 1 reverse transcriptase (Human immunodeficiency virus 1) | 2.11 |
| Cc1cccc(C)c1Oc1ccnc(NC2CCN(C(=O)c3cc4cc(NS(C)(=O)=O)ccc4[nH]3)CC2)n1 | Human immunodeficiency virus type 1 reverse transcriptase (Human immunodeficiency virus 1) | 4.08 |
| CS(=O)(=O)Nc1ccc2[nH]c(C(=O)N3CCC(Nc4nccc(Oc5ccccc5Cl)n4)CC3)cc2c1 | Human immunodeficiency virus type 1 reverse transcriptase (Human immunodeficiency virus 1) | 3.20 |
| Cc1cc(C)c(Oc2ccnc(NC3CCN(C(=O)c4cc5cc(NS(C)(=O)=O)ccc5[nH]4)CC3)n2)c(C)c1 | Human immunodeficiency virus type 1 reverse transcriptase (Human immunodeficiency virus 1) | 2.04 |

Prompt: What log10(IC50) value was documented for this compound, `CS(=O)(=O)Nc1ccc2[nH]c(C(=O)N3CCC(Nc4nccc(Oc5ccccc5Br)n4)CC3)cc2c1` ?
Completion: 3.15

Prompt: What log10(IC50) value was documented for this compound, `Cc1ccccc1Oc1ccnc(NC2CCN(C(=O)c3cc4cc(NS(C)(=O)=O)ccc4[nH]3)CC2)n1` ?
Completion: 3.93

Prompt: What log10(IC50) value was documented for this compound, `Cc1cc(Oc2ccnc(NC3CCN(C(=O)c4cc5cc(NS(C)(=O)=O)ccc5[nH]4)CC3)n2)cc(C)c1Cl` ?
Completion: 3.48

Prompt: What log10(IC50) value was documented for this compound, `CS(=O)(=O)Nc1ccc2[nH]c(C(=O)N3CCC(Nc4nccc(Oc5cccc(Cl)c5)n4)CC3)cc2c1` ?
Completion: 2.53

Prompt: What log10(IC50) value was documented for this compound, `CS(=O)(=O)Nc1ccc2[nH]c(C(=O)N3CCC(Nc4nccc(Oc5ccc(Br)cc5)n4)CC3)cc2c1` ?
Completion: 3.34

Prompt: What log10(IC50) value was documented for this compound, `CS(=O)(=O)Nc1ccc2[nH]c(C(=O)N3CCC(Nc4nccc(Oc5ccc(Br)cc5F)n4)CC3)cc2c1` ?
Completion: 2.04
